- tested.target: Protein kinase C delta type (Homo sapiens, UniProt Q05655); note: in the data inactive means no Kd found up to 30 µM
Counter-ions that a name gives are not always drawn. Active and inactive are the calls of the source.
Classes used: t for active, f for inactive

- molecule: "O=C(Cc1ccc(-c2ccc(OCCN3CCOCC3)cc2)cn1)NCc1ccccc1 [TIRBANIBULIN]"
  class.label: "f"
- molecule: "COCc1c(-c2ccc(NC(=O)Nc3cc(C(F)(F)F)ccc3F)c(F)c2)c2c(N)ncnn2c1CN1CCOCC1"
  class.label: "t"
- molecule: "CCCCCCCCCCCCCCCCCCOP(=O)([O-])OC1CC[N+](C)(C)CC1 [PERIFOSINE]"
  class.label: "f"
- molecule: "FC(F)(F)c1ccc(/C=C/c2nc(COc3ccc(CCCCn4ccnn4)cc3)co2)cc1 [MUBRITINIB]"
  class.label: "f"
- molecule: "O=C(Nc1nc2cccc(-c3ccc(CN4CCS(=O)(=O)CC4)cc3)n2n1)C1CC1 [FILGOTINIB]"
  class.label: "f"
- molecule: "CCn1cc(-c2ccnc3[nH]c(-c4cccc(CN(C)C)c4)cc23)c(-c2ccc(NC(=O)N(C)C)cc2)n1 [GSK-1070916]"
  class.label: "f"
- molecule: "COc1ncc(-c2ccc3nccc(-c4ccnnc4)c3c2)cc1NS(=O)(=O)c1ccc(F)cc1F [OMIPALISIB]"
  class.label: "f"
- molecule: "Cc1nc(NC(=O)N2CCC[C@H]2C(N)=O)sc1-c1ccnc(C(C)(C)C(F)(F)F)c1 [ALPELISIB]"
  class.label: "f"
- molecule: "Cc1cc(Nc2ncnc3ccc(NC4=NC(C)(C)CO4)cc23)ccc1Oc1ccn2ncnc2c1 [TUCATINIB]"
  class.label: "f"
- molecule: "CCS(=O)(=O)N1CCN(c2ccc(Nc3ncc(C(N)=O)c(NC4CC4)n3)cc2)CC1 [Cerdulatinib Hydrochloride]"
  class.label: "t"
- molecule: "C=CC(=O)Nc1cc2c(Nc3ccc(F)c(Cl)c3)ncnc2cc1C#CC(C)(C)N1CCN(C)CC1 [AV-412 FREE BASE]"
  class.label: "f"
- molecule: "Cc1cnc(NC(=O)Nc2cc(Br)c(C)cc2OC[C@@H]2CNCCO2)cn1 [RABUSERTIB]"
  class.label: "f"
- molecule: "O=C1NC(=O)[C@@H](c2cn3c4c(cccc24)CCC3)[C@@H]1c1c[nH]c2ccccc12 [TIVANTINIB]"
  class.label: "f"
- molecule: "Cc1csc(-c2nnc(Nc3ccc(Oc4ncccc4-c4ccnc(N)n4)cc3)c3ccccc23)c1 [AMG-900]"
  class.label: "t"
- molecule: "CN(C[C@@H]1COCCO1)S(=O)(=O)Nc1ccc2ccc3ncc(-c4cnn(C)c4)cc3c(=O)c2c1 [MK-2461]"
  class.label: "f"
- molecule: "O=c1[nH]ccc2cc(OC3CCNCC3)ccc12 [SAR-407899 FREE BASE]"
  class.label: "t"

----------
- tested.target: Epidermal growth factor receptor (Homo sapiens, UniProt P00533); note: in the data inactive means no Kd found up to 30 µM
- Sequence (P00533 whole entry): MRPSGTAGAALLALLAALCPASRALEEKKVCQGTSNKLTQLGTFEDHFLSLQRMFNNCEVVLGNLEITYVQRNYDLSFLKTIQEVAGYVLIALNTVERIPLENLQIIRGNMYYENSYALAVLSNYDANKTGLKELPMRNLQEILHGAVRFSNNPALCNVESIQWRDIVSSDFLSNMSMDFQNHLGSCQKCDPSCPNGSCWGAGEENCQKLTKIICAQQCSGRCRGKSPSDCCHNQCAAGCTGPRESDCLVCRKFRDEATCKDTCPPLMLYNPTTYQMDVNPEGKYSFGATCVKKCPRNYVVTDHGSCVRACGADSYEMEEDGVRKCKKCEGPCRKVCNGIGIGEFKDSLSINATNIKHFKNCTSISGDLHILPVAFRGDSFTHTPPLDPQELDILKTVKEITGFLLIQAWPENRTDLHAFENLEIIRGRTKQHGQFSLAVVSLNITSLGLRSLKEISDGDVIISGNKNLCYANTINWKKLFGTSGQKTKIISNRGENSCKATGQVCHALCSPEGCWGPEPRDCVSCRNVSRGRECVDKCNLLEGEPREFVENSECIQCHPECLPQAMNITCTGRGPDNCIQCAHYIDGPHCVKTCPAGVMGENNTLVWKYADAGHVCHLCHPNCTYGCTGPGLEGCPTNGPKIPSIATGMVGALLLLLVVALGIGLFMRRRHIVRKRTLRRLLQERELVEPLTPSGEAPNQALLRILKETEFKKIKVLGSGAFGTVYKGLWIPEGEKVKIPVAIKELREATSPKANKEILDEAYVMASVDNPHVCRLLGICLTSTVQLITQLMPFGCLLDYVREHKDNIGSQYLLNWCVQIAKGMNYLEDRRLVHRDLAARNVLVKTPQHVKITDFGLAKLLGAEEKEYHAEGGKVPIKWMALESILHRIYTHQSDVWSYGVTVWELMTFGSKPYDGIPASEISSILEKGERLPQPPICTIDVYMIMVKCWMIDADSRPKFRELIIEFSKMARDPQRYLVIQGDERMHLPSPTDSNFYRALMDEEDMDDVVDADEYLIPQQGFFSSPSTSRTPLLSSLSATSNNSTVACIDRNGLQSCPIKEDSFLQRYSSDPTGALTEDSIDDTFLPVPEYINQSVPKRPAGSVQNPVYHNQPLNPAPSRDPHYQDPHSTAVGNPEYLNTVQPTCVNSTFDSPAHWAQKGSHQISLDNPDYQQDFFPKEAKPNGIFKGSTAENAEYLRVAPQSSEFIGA
Active and inactive are the calls of the source.
Classes used: 1 = active, 0 = inactive

- compound: "Cc1csc(-c2nnc(Nc3ccc(Oc4ncccc4-c4ccnc(N)n4)cc3)c3ccccc23)c1"
  class.label: 0
- compound: "Cc1cc(Nc2ncnc3ccc(NC4=NC(C)(C)CO4)cc23)ccc1Oc1ccn2ncnc2c1"
  class.label: 1
- compound: "C[C@@H](N)c1ccc(C(=O)Nc2ccnc3[nH]ccc23)cc1"
  class.label: 0
- compound: "NC1(c2ccc(-c3nc4ccn5c(=O)[nH]nc5c4cc3-c3ccccc3)cc2)CCC1"
  class.label: 0
- compound: "O=C1NC(=O)[C@@H](c2cn3c4c(cccc24)CCC3)[C@@H]1c1c[nH]c2ccccc12 [TIVANTINIB]"
  class.label: 0
- compound: "Nc1ncnc2c1c(-c1cccc(OCc3ccccc3)c1)cn2[C@H]1C[C@@H](CN2CCC2)C1"
  class.label: 0
- compound: "N#CC1(c2ccc(NC(=O)c3cccnc3NCc3ccncc3)cc2)CCCC1"
  class.label: 0
- compound: "Cc1nc(NC(=O)N2CCC[C@H]2C(N)=O)sc1-c1ccnc(C(C)(C)C(F)(F)F)c1"
  class.label: 0

----------
Measured Kd by item
- tested.target: Structural maintenance of chromosomes protein 2 (Homo sapiens); note: in the data inactive means no Kd found up to 30 µM
- Sequence (O95347 whole entry): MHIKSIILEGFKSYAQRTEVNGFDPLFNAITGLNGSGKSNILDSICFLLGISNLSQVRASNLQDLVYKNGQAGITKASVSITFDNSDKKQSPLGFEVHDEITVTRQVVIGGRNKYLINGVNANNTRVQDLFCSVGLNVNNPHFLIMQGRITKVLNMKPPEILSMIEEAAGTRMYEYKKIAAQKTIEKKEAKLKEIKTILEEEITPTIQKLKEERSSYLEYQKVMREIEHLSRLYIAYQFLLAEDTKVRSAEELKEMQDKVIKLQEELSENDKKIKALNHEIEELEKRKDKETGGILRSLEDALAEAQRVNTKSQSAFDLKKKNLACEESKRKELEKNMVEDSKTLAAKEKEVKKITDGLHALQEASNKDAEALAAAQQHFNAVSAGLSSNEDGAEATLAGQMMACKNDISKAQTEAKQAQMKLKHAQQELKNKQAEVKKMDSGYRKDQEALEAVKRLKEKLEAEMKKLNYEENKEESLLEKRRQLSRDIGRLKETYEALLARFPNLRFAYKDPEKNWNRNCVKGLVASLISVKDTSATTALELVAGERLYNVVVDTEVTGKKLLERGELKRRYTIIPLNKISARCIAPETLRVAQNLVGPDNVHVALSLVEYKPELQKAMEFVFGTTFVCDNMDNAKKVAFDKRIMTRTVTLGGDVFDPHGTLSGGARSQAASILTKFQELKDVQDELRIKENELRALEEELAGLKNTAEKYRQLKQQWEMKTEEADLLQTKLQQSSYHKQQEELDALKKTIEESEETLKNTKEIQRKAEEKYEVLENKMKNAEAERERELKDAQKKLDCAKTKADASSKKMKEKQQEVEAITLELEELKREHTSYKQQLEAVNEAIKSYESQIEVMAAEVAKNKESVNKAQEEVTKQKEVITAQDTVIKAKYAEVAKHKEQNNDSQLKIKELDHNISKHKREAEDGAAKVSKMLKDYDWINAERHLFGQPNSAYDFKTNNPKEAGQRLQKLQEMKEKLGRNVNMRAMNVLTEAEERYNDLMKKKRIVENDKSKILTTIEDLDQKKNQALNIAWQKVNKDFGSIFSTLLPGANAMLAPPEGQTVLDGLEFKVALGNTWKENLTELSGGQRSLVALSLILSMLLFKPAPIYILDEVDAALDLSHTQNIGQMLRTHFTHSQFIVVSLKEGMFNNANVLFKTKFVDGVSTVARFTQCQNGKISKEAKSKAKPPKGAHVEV
Active and inactive are the calls of the source.

- smiles: "CNC(=O)c1cccc2cc(Oc3ccnc4cc(OCC5(N)CC5)c(OC)cc34)ccc12"
  Kd: "> 30 µM (inactive)"
- smiles: "COCC(=O)NC/C=C/c1ccc2ncnc(Nc3ccc(Oc4ccc(C)nc4)c(C)c3)c2c1"
  Kd: "> 30 µM (inactive)"
- smiles: "CNC(=O)c1cc(Oc2ccc(NC(=O)Nc3cc(C(C)(C)C)nn3-c3ccc4ncccc4c3)c(F)c2)ccn1"
  Kd: "> 30 µM (inactive)"
- smiles: "CCCCCCCCCCCCCCCCCCOP(=O)([O-])OC1CC[N+](C)(C)CC1"
  Kd: "> 30 µM (inactive)"
- smiles: "CNC(=O)c1nn(C)c2c1C(C)(C)Cc1cnc(Nc3ccc(N4CCN(C)CC4)cc3)nc1-2"
  Kd: "> 30 µM (inactive)"
- smiles: "Cn1cc(C2=C(c3cn(C4CCN(Cc5ccccn5)CC4)c4ccccc34)C(=O)NC2=O)c2ccccc21"
  Kd: "> 30 µM (inactive)"
- smiles: "CNC(=O)c1ccccc1Sc1ccc2c(/C=C/c3ccccn3)n[nH]c2c1"
  Kd: "> 30 µM (inactive)"
- smiles: "CCn1cc(-c2ccnc3[nH]c(-c4cccc(CN(C)C)c4)cc23)c(-c2ccc(NC(=O)N(C)C)cc2)n1"
  Kd: "> 30 µM (inactive)"

----------
- tested.target: UniProtKB Q05397
- Sequence (Q05397 whole entry): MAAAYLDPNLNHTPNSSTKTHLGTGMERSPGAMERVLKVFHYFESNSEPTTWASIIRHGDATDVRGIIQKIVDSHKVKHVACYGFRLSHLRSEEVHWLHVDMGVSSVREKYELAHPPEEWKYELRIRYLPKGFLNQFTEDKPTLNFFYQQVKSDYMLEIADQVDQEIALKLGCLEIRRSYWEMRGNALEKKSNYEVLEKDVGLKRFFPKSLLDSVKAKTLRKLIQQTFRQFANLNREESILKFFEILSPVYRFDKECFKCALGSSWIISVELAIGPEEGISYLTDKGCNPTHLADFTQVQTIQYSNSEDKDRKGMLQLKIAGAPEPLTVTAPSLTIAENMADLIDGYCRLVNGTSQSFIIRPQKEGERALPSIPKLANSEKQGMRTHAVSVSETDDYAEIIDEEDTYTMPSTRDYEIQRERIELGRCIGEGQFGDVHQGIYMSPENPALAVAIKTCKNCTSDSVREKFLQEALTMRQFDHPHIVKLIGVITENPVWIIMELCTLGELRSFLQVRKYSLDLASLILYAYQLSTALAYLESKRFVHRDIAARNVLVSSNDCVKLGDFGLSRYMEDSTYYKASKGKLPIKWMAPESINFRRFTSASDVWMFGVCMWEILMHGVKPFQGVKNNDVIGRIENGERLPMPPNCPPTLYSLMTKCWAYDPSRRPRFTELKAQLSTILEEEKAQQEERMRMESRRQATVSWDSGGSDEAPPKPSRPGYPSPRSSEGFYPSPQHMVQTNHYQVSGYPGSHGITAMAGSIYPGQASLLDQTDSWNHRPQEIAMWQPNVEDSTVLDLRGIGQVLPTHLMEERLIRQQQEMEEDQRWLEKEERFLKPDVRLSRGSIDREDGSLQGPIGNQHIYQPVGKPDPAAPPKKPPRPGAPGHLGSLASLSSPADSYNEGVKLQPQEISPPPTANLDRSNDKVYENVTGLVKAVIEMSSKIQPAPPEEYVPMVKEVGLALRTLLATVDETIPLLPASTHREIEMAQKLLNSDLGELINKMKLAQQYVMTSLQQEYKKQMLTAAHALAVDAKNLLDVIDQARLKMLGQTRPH
Calls of active or inactive are those of the source.
Classes used: active, inactive

- smiles: "CO[C@H]1C[C@@H]2CC[C@@H](C)[C@@](O)(O2)C(=O)C(=O)N2CCCC[C@H]2C(=O)O[C@H]([C@H](C)C[C@@H]2CC[C@@H](O)[C@H](OC)C2)CC(=O)[C@H](C)/C=C(\\C)[C@@H](O)[C@@H](OC)C(=O)[C@H](C)C[C@H](C)/C=C/C=C/C=C/1C"
  class.label: "inactive"
- smiles: "CNC(=O)c1cccc2cc(Oc3ccnc4cc(OCC5(N)CC5)c(OC)cc34)ccc12"
  class.label: "inactive"
- smiles: "CN1C/C=C/CCOc2cccc(c2)-c2ccnc(n2)Nc2cccc(c2)C1"
  class.label: "inactive"
- smiles: "CCS(=O)(=O)c1cccc(-c2cc(C(=O)NC3CCN(C)CC3)c(C)c3[nH]c4ncc(C)cc4c23)c1"
  class.label: "active"
- smiles: "CCn1cc(-c2ccnc3[nH]c(-c4cccc(CN(C)C)c4)cc23)c(-c2ccc(NC(=O)N(C)C)cc2)n1"
  class.label: "inactive"
- smiles: "Cn1cnc2c(F)c(Nc3ccc(Br)cc3F)c(C(=O)NOCCO)cc21"
  class.label: "inactive"

----------
Activity calls are given as the source filed them.
Below are Kd values measured for TGF-beta receptor type-2 (Homo sapiens, UniProt P37173).
reported.metric: Kd

- smiles: "CNC(=O)c1cccc2cc(Oc3ccnc4cc(OCC5(N)CC5)c(OC)cc34)ccc12"
  tested.target: "TGF-beta receptor type-2 (Homo sapiens, UniProt P37173)"
  value.measured: "> 30 µM (inactive)"
- smiles: "COCc1c(-c2ccc(NC(=O)Nc3cc(C(F)(F)F)ccc3F)c(F)c2)c2c(N)ncnn2c1CN1CCOCC1"
  tested.target: "TGF-beta receptor type-2 (Homo sapiens, UniProt P37173)"
  value.measured: "> 30 µM (inactive)"
- smiles: "CN(C[C@@H]1COCCO1)S(=O)(=O)Nc1ccc2ccc3ncc(-c4cnn(C)c4)cc3c(=O)c2c1"
  tested.target: "TGF-beta receptor type-2 (Homo sapiens, UniProt P37173)"
  value.measured: "> 30 µM (inactive)"
- smiles: "CN1C/C=C/CCOc2cccc(c2)-c2ccnc(n2)Nc2cccc(c2)C1"
  tested.target: "TGF-beta receptor type-2 (Homo sapiens, UniProt P37173)"
  value.measured: "> 30 µM (inactive)"

----------
- tested.target: Mitogen-activated protein kinase kinase kinase 1 (Homo sapiens, UniProt Q13233); note: in the data inactive means no Kd found up to 30 µM
- Sequence (Q13233 whole entry): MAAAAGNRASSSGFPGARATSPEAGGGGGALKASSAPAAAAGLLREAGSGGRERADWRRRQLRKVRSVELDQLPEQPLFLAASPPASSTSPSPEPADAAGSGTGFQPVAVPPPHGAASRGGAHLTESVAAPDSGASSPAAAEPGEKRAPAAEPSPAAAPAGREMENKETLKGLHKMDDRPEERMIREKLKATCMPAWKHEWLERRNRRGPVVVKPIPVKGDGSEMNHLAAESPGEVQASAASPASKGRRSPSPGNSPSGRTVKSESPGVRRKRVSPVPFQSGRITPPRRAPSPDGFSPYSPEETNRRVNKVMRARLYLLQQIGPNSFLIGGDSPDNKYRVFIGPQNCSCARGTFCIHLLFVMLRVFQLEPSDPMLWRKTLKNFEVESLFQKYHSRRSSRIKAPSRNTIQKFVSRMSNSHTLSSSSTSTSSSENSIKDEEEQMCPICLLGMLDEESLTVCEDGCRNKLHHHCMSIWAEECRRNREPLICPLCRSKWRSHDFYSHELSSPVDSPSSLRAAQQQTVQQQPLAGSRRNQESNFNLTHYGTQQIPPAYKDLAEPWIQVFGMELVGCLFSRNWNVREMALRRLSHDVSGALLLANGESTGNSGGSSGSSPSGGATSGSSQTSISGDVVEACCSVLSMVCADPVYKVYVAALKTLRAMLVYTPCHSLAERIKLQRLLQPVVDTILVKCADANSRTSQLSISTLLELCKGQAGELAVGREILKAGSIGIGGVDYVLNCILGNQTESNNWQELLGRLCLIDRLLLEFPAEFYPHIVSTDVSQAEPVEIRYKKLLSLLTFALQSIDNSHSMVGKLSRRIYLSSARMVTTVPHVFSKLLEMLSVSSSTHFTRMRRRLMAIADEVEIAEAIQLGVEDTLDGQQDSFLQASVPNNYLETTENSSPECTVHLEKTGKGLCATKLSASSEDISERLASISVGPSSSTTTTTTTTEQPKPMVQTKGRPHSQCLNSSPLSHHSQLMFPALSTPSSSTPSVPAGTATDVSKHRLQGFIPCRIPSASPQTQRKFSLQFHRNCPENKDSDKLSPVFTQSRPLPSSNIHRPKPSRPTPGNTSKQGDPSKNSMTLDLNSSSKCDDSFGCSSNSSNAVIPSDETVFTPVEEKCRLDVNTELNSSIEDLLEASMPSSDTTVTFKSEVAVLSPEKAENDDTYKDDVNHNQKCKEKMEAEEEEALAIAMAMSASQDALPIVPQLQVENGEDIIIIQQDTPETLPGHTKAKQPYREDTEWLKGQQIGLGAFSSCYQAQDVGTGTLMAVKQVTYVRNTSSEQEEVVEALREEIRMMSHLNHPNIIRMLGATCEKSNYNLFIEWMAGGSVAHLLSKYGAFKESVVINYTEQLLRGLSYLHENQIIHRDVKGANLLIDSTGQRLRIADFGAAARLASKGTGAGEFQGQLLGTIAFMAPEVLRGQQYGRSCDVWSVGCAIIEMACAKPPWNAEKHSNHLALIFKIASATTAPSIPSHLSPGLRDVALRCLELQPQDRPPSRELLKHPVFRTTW
The source made the active and inactive calls.
Classes used: active, inactive

- compound: "O=c1[nH]ccc2cc(OC3CCNCC3)ccc12 [SAR-407899 FREE BASE]"
  class.label: "inactive"
- compound: "Cc1cc(Nc2ncc(Cl)c(Nc3ccccc3S(=O)(=O)C(C)C)n2)c(OC(C)C)cc1C1CCNCC1"
  class.label: "inactive"
- compound: "COc1cc(Nc2ncc3c(n2)-c2ccc(Cl)cc2C(c2c(F)cccc2OC)=NC3)ccc1C(=O)O"
  class.label: "inactive"
- compound: "C=CC(=O)N1CCC[C@H](n2c(=O)n(-c3ccc(Oc4ccccc4)cc3)c3c(N)ncnc32)C1"
  class.label: "inactive"
- compound: "O=C(Nc1nc2cccc(-c3ccc(CN4CCS(=O)(=O)CC4)cc3)n2n1)C1CC1"
  class.label: "inactive"
- compound: "Cc1cc(Nc2ncnc3ccc(NC4=NC(C)(C)CO4)cc23)ccc1Oc1ccn2ncnc2c1"
  class.label: "inactive"
- compound: "NC(=O)Nc1cc(-c2cccc(F)c2)sc1C(=O)N[C@H]1CCCNC1"
  class.label: "inactive"
- compound: "CN1CCN(CCOc2cc(OC3CCOCC3)c3c(Nc4c(Cl)ccc5c4OCO5)ncnc3c2)CC1"
  class.label: "inactive"
- compound: "CN(C[C@@H]1COCCO1)S(=O)(=O)Nc1ccc2ccc3ncc(-c4cnn(C)c4)cc3c(=O)c2c1"
  class.label: "inactive"
- compound: "COCC(=O)NC/C=C/c1ccc2ncnc(Nc3ccc(Oc4ccc(C)nc4)c(C)c3)c2c1"
  class.label: "inactive"
- compound: "COc1ccc(S(=O)(=O)N(C(C)=O)c2ccccc2/C=C/c2cc[n+]([O-])cc2)cc1"
  class.label: "inactive"
- compound: "CO[C@H]1C[C@@H]2CC[C@@H](C)[C@@](O)(O2)C(=O)C(=O)N2CCCC[C@H]2C(=O)O[C@H]([C@H](C)C[C@@H]2CC[C@@H](OP(C)(C)=O)[C@H](OC)C2)CC(=O)[C@H](C)/C=C(\\C)[C@@H](O)[C@@H](OC)C(=O)[C@H](C)C[C@H](C)/C=C/C=C/C=C/1C"
  class.label: "inactive"
- compound: "C[C@@H](NC(=O)c1ncnc(N)c1Cl)c1ncc(C(=O)Nc2cc(C(F)(F)F)c(Cl)cn2)s1"
  class.label: "active"
- compound: "NC(=O)c1c(OCc2c(F)cc(Br)cc2F)nsc1NC(=O)NCCCCN1CCCC1"
  class.label: "active"
- compound: "Cc1nc2cc(-c3nn(C(C)C)c4ncnc(N)c34)ccc2o1"
  class.label: "active"

Where do these numbers come from? They come from ChEMBL document CHEMBL3991601.
